meta.source: the supplement of paper PMC11061612

Tested on: NCI-H3118 (Head and Neck Carcinoma)
Assay Method Text: combination Emax (second highest fraction inhibited in the dose matrix, 72 h); higher = more inhibition; extreme values may be limits of the assay
Kindly supply the reported combination Emax values for the records listed here.
Please reply with the number alone, leaving off any unit.

stdin: What does the record list as combination Emax for C[C@@H]1COCCN1c1cc(C2([S@](C)(=N)=O)CC2)nc(-c2ccnc3[nH]ccc23)n1 [AZD6738] + O=C(c1cc(Cc2n[nH]c(=O)c3ccccc23)ccc1F)N1CCN(C(=O)C2CC2)CC1 [Olaparib] (first compound max 10 µM, 7x7, partner max 10 µM) ?
stdout: 0.64

stdin: Any idea what its combination Emax is? The compound is CN(CCO)CC[C@H](CSc1ccccc1)Nc1ccc(S(=O)(=O)NC(=O)c2ccc(N3CCC([C@@H](O)c4ccccc4-c4ccc(Cl)cc4)CC3)cc2)cc1S(=O)(=O)C(F)(F)F [AZD4320] + C1CN(CCC1(C(=O)N[C@@H](CCO)C2=CC=C(C=C2)Cl)N)C3=NC=NC4=C3C=CN4 [Capivasertib] (first compound max 1 µM, 7x7, partner max 3 µM)
stdout: 0.0845

stdin: # query: combination Emax of entry COc1nnc2ccc(N3CCC(c4ccc(OCCN5CCN(C)C(=O)[C@H]5C)cc4)CC3)nn12 [AZD5153] + Cn1cnc2c(F)c(Nc3ccc(Br)cc3Cl)c(C(=O)NOCCO)cc21 [Selumetinib] (first compound max 1 µM, 7x7, partner max 10 µM)
stdout: 0.63

* * *

Test system: SUP-M2 (T-Cell Non-Hodgkin's Lymphoma)
Assay Method Text: combination Emax (second highest fraction inhibited in the dose matrix, 72 h); higher = more inhibition; extreme values may be limits of the assay
Assay Metric: combination Emax
Just the number, please, no unit attached.

stdin: What measured combination Emax goes with CCN(CCO)CCCOc1ccc2c(Nc3cc(CC(=O)Nc4cccc(F)c4)[nH]n3)ncnc2c1 [AZD2811] + C=CCn1c(=O)c2cnc(Nc3ccc(N4CCN(C)CC4)cc3)nc2n1-c1cccc(C(C)(C)O)n1 [AZD1775] (first compound max 1 µM, partner max 1 µM) ?
stdout: 1

stdin: Please report the recorded combination Emax for Cn1cnc2c(F)c(Nc3ccc(Br)cc3Cl)c(C(=O)NOCCO)cc21 [Selumetinib] + C=CCn1c(=O)c2cnc(Nc3ccc(N4CCN(C)CC4)cc3)nc2n1-c1cccc(C(C)(C)O)n1 [AZD1775] (first compound max 10 µM, partner max 1 µM) .
stdout: 0.996

stdin: Item CCN(CCO)CCCOc1ccc2c(Nc3cc(CC(=O)Nc4cccc(F)c4)[nH]n3)ncnc2c1 [AZD2811] + O=C(c1cc(Cc2n[nH]c(=O)c3ccccc23)ccc1F)N1CCN(C(=O)C2CC2)CC1 [Olaparib] (first compound max 1 µM, 7x7, partner max 10 µM) has what recorded combination Emax?
stdout: 0.975

stdin: Returns the measured combination Emax for the input compound. Input: NC1(C(=O)N[C@@H](CCO)c2ccc(Cl)cc2)CCN(c2ncnc3[nH]ccc23)CC1 [Capivasertib] + COc1nnc2ccc(N3CCC(c4ccc(OCCN5CCN(C)C(=O)[C@H]5C)cc4)CC3)nn12 [AZD5153] (first compound max 10 µM, 7x7, partner max 1 µM)
stdout: 0.915

* * *

Tested on: T47D (Breast Carcinoma);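 further: after 72 h of two-drug dosing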
Assay Method Text: Bliss excess, mean over the matrix (fraction); higher = more synergy
Assay Metric: Bliss excess
The response must contain the number and no unit.

stdin: Report Bliss excess for CN(CCO)CC[C@H](CSc1ccccc1)Nc1ccc(S(=O)(=O)NC(=O)c2ccc(N3CCC([C@@H](O)c4ccccc4-c4ccc(Cl)cc4)CC3)cc2)cc1S(=O)(=O)C(F)(F)F [AZD4320] + C[C@@H](Nc1cc(F)cc(F)c1)c1cc(C(=O)N(C)C)cc2c(=O)cc(N3CCOCC3)oc12 [AZD8186] (first compound max 1 µM, 7x7, partner max 3 µM) tested on T47D (Breast Carcinoma).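 Further: after 72 h of two-drug dosing.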
stdout: -0.0242

stdin: Reported Bliss excess for T47D (Breast Carcinoma), given Cc1c2c(nn1C)CSCc1cc(n(C)n1)CSc1cc(c3ccccc3c1)OCCCc1c(C(=O)O)n(C)c3c-2c(Cl)ccc13 [AZD5991] + C=CCn1c(=O)c2cnc(Nc3ccc(N4CCN(C)CC4)cc3)nc2n1-c1cccc(C(C)(C)O)n1 [AZD1775] (first compound max 1 µM, partner max 1 µM) ?
stdout: -0.0369

stdin: Given the entry Cc1c2c(nn1C)CSCc1cc(n(C)n1)CSc1cc(c3ccccc3c1)OCCCc1c(C(=O)O)n(C)c3c-2c(Cl)ccc13 [AZD5991] + CN(C)CCCOc1ccc(-c2ccc3ncc4c(c3c2)n(C2CCOCC2)c(=O)n4C)cn1 [AZD0156] (first compound max 1 µM, 7x7, partner max 1 µM) , what Bliss excess was observed with T47D (Breast Carcinoma)?
stdout: 0.0093

* * *

Test system: BxPC-3 (Pancreatic Carcinoma)
Assay Method Text: combination Emax (second highest fraction inhibited in the dose matrix, 72 h); higher = more inhibition; extreme values may be limits of the assay
So I've got a bunch of compounds here, and I need their combination Emax values.
Number, no unit, nothing else.

stdin: Which combination Emax is listed for O=C(c1cc(Cc2n[nH]c(=O)c3ccccc23)ccc1F)N1CCN(C(=O)C2CC2)CC1 [Olaparib] + CC1(C)CCC(CN2CCN(c3ccc(C(=O)NS(=O)(=O)c4ccc(NCC5CCOCC5)c([N+](=O)[O-])c4)c(Oc4cnc5[nH]ccc5c4)c3)CC2)=C(c2ccc(Cl)cc2)C1 [Venetoclax] (first compound max 10 µM, 7x7, partner max 1 µM) ?
stdout: 0.148

stdin: For the compound shown here, COc1nnc2ccc(N3CCC(c4ccc(OCCN5CCN(C)C(=O)[C@H]5C)cc4)CC3)nn12 [AZD5153] + CCN(CCO)CCCOc1ccc2c(Nc3cc(CC(=O)Nc4cccc(F)c4)[nH]n3)ncnc2c1 [AZD2811] (first compound max 1 µM, 7x7, partner max 1 µM) , give the reported combination Emax.
stdout: 0.491

stdin: Looking for the measured combination Emax of Cc1cc2ncnn2cc1Nc1ncc2c(n1)n(C1CCOCC1)c(=O)n2C [AZD7648] + CN(C)CCCOc1ccc(-c2ccc3ncc4c(c3c2)n(C2CCOCC2)c(=O)n4C)cn1 [AZD0156] (first compound max 10 µM, 7x7, partner max 1 µM) , can you help?
stdout: 0.176

stdin: // returns reported combination Emax for input CN(CCO)CC[C@H](CSc1ccccc1)Nc1ccc(S(=O)(=O)NC(=O)c2ccc(N3CCC([C@@H](O)c4ccccc4-c4ccc(Cl)cc4)CC3)cc2)cc1S(=O)(=O)C(F)(F)F [AZD4320] + CN(C)CCCOc1ccc(-c2ccc3ncc4c(c3c2)n(C2CCOCC2)c(=O)n4C)cn1 [AZD0156] (first compound max 1 µM, 7x7, partner max 1 µM)
stdout: 0.0513

stdin: What does the record list as combination Emax for C=CCn1c(=O)c2cnc(Nc3ccc(N4CCN(C)CC4)cc3)nc2n1-c1cccc(C(C)(C)O)n1 [AZD1775] + O=C(c1cc(Cc2n[nH]c(=O)c3ccccc23)ccc1F)N1CCN(C(=O)C2CC2)CC1 [Olaparib] (first compound max 1 µM, partner max 10 µM) ?
stdout: 0.511

stdin: Recorded combination Emax of C[C@@H]1COCCN1c1cc(C2([S@](C)(=N)=O)CC2)nc(-c2ccnc3[nH]ccc23)n1 [AZD6738] + Nc1ccn([C@@H]2O[C@H](CO)[C@@H](O)C2(F)F)c(=O)n1 [Gemcitabine] (first compound max 10 µM, 7x7, partner max 0.3 µM) , please.
stdout: 0.63

* * *

Test system: HT-1080 (Other Solid Carcinomas)
Assay Method Text: combination Emax (second highest fraction inhibited in the dose matrix, 72 h); higher = more inhibition; extreme values may be limits of the assay
Give true when the value for combination Emax is at least 0.4. Give false when it is less.

stdin: Check if combination Emax >= 0.4 (inclusive). Item: NC1(C(=O)N[C@@H](CCO)c2ccc(Cl)cc2)CCN(c2ncnc3[nH]ccc23)CC1 [Capivasertib] + CC(=O)c1c(C)c2cnc(Nc3ccc(N4CCNCC4)cn3)nc2n(C2CCCC2)c1=O [Palbociclib] (first compound max 10 µM, 7x7, partner max 10 µM)
stdout: false

stdin: Quick check, combination Emax >= 0.4? COc1nnc2ccc(N3CCC(c4ccc(OCCN5CCN(C)C(=O)[C@H]5C)cc4)CC3)nn12 [AZD5153] + CC1(C)CCC(CN2CCN(c3ccc(C(=O)NS(=O)(=O)c4ccc(NCC5CCOCC5)c([N+](=O)[O-])c4)c(Oc4cnc5[nH]ccc5c4)c3)CC2)=C(c2ccc(Cl)cc2)C1 [Venetoclax] (first compound max 1 µM, 7x7, partner max 1 µM)
stdout: false

stdin: Check if combination Emax >= 0.4 (inclusive). Item: CC1(C)CCC(CN2CCN(c3ccc(C(=O)NS(=O)(=O)c4ccc(NCC5CCOCC5)c([N+](=O)[O-])c4)c(Oc4cnc5[nH]ccc5c4)c3)CC2)=C(c2ccc(Cl)cc2)C1 [Venetoclax] + Cn1cnc2c(F)c(Nc3ccc(Br)cc3Cl)c(C(=O)NOCCO)cc21 [Selumetinib] (first compound max 1 µM, 7x7, partner max 3 µM)
stdout: false

stdin: In plain terms: is recorded combination Emax at least 0.4 for CN(CCO)CC[C@H](CSc1ccccc1)Nc1ccc(S(=O)(=O)NC(=O)c2ccc(N3CCC([C@@H](O)c4ccccc4-c4ccc(Cl)cc4)CC3)cc2)cc1S(=O)(=O)C(F)(F)F [AZD4320] + Cn1cnc2c(F)c(Nc3ccc(Br)cc3Cl)c(C(=O)NOCCO)cc21 [Selumetinib] (first compound max 1 µM, 7x7, partner max 3 µM) ?
stdout: true

stdin: Dear colleague, could you confirm whether CCN(CCO)CCCOc1ccc2c(Nc3cc(CC(=O)Nc4cccc(F)c4)[nH]n3)ncnc2c1 [AZD2811] + O=C(c1cc(Cc2n[nH]c(=O)c3ccccc23)ccc1F)N1CCN(C(=O)C2CC2)CC1 [Olaparib] (first compound max 1 µM, 7x7, partner max 10 µM) has combination Emax at or above 0.4?
stdout: false

stdin: API: above_or_equal(metric=combination Emax, cutoff=0.4) for item CN(CCO)CC[C@H](CSc1ccccc1)Nc1ccc(S(=O)(=O)NC(=O)c2ccc(N3CCC([C@@H](O)c4ccccc4-c4ccc(Cl)cc4)CC3)cc2)cc1S(=O)(=O)C(F)(F)F [AZD4320] + CCN(CCO)CCCOc1ccc2c(Nc3cc(CC(=O)Nc4cccc(F)c4)[nH]n3)ncnc2c1 [AZD2811] (first compound max 1 µM, 7x7, partner max 1 µM)
stdout: true
